Attribution: patent US20260193268A1

As an illustration, consider measured IC50 for compounds on PI3Kδ (Homo sapiens, UniProt O00329).
Sequence (O00329 whole entry, species assumed): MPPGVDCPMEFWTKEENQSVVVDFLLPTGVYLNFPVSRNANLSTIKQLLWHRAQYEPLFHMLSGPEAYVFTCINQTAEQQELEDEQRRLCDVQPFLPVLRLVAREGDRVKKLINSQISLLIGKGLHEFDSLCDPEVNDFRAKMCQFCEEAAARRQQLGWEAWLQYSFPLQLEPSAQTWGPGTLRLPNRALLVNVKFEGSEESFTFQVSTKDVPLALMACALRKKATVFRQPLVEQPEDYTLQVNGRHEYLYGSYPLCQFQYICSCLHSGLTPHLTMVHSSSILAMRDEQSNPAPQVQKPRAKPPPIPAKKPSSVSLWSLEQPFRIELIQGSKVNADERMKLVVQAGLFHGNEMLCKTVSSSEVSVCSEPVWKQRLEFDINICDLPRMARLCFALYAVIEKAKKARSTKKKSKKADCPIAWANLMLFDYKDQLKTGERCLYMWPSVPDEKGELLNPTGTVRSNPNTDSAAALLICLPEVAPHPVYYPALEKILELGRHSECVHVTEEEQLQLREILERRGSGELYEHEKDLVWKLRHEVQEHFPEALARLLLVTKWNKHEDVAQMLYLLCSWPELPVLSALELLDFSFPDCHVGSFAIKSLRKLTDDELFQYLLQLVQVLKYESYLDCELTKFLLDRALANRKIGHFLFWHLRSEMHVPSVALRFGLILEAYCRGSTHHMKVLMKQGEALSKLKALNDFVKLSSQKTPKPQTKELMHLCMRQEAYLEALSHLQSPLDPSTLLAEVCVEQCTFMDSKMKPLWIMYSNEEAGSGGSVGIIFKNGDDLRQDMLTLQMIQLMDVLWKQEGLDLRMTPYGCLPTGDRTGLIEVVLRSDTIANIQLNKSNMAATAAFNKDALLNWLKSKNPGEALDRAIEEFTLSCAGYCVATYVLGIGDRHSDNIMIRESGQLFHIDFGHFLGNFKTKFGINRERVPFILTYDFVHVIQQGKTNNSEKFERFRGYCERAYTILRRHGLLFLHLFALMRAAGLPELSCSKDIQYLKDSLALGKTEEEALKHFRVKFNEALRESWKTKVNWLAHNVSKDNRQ
Sequence (P27986 whole entry partner, species assumed): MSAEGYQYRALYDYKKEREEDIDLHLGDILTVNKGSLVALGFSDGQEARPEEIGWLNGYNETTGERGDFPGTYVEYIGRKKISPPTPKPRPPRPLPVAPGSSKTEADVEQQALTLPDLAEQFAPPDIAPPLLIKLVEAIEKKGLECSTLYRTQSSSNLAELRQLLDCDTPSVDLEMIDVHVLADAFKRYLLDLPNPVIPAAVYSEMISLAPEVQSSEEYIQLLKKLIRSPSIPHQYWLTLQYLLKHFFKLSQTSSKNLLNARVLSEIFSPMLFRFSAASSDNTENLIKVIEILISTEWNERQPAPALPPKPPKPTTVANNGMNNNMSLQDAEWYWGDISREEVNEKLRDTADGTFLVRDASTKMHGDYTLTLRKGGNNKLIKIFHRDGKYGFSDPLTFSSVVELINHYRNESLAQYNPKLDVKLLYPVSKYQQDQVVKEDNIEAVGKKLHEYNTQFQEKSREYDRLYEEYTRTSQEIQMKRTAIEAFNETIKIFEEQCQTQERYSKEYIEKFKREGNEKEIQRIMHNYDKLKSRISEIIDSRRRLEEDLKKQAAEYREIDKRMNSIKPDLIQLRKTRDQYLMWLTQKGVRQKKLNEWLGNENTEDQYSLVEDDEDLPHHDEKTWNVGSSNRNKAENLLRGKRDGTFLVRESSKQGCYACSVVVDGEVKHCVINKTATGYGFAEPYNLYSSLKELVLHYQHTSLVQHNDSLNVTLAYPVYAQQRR
// return numeric value only (unit: nM, not printed)

Param item = C=CC(=O)Nc1ccc(N2CC(CN3CCN(c4ccc5c(c4)-c4nc(N6C(=O)OC[C@H]6C(F)F)cn4CCO5)CC3)C2)cc1 ; retrieve measured IC50.
43

Another: C=CC(=O)Nc1ccc(N2CC(N3CCN(c4ccc5c(c4)-c4nc(N6C(=O)OC[C@H]6C(F)F)cn4CCO5)CC3)C2)cc1
76

Here is the next compound: C=CC(=O)Nc1ccc(N2CC[C@H](N3CCN(c4ccc5c(c4)-c4nc(N6C(=O)OC[C@H]6C(F)F)cn4CCO5)CC3)C2)cc1 (single isomer, unassigned)
49

###

test system: HCC1954 cells (with PI3Kα H1047R mutation); assay: In vitro inhibition of HCC1954 cell proliferation (CellTiter-Lumi); assay type: cell-based; conditions: Homo sapiens, HCC1954, 144 h, HCC1954 cells, 144 h, CellTiter-Lumi; numeric values; read-out: Inhibitory activity against HCC1954 cells (IC50)
MEASURE_NAME: pIC50
pIC50 here: minus log base 10 of the concentration, concentration in moles per litre.

Which pIC50 is reported for this compound? CC#CC(=O)Nc1ccc(N2CC(N3CCN(c4ccc5c(c4)-c4nc(N6C(=O)OC[C@H]6C(F)F)cn4CCO5)CC3)C2)cc1
7.35

Please do the same for C=CC(=O)N1CC(N2CC[C@@H](CN3CCN(c4ccc5c(c4)-c4nc(N6C(=O)OC[C@H]6C(F)F)cn4CCO5)CC3)C2)C1 as well.
6.50

Input C=CC(=O)N1CCC(N2CCC(N3CCN(c4ccc5c(c4)-c4nc(N6C(=O)OC[C@H]6C(F)F)cn4CCO5)CC3)C2)CC1 (stereo partly drawn)
6.64

Quick one: C=CC(=O)Nc1ccc(N2CC(N3CCN(c4ccc5c(c4)-c4nc(N6C(=O)OC[C@H]6C(F)F)cn4CCO5)CC3)C2)c(OC)c1
8.47

Again, but for C=CC(=O)Nc1ccc(N2CC(N3CCN(c4ccc5c(c4)-c4nc(N6C(=O)OC[C@H]6C(F)F)cn4CCO5)CC3)C2)cc1C
8.17

###

target: PI3Kβ (Homo sapiens, UniProt P42338)
Sequence (P42338 whole entry, species assumed): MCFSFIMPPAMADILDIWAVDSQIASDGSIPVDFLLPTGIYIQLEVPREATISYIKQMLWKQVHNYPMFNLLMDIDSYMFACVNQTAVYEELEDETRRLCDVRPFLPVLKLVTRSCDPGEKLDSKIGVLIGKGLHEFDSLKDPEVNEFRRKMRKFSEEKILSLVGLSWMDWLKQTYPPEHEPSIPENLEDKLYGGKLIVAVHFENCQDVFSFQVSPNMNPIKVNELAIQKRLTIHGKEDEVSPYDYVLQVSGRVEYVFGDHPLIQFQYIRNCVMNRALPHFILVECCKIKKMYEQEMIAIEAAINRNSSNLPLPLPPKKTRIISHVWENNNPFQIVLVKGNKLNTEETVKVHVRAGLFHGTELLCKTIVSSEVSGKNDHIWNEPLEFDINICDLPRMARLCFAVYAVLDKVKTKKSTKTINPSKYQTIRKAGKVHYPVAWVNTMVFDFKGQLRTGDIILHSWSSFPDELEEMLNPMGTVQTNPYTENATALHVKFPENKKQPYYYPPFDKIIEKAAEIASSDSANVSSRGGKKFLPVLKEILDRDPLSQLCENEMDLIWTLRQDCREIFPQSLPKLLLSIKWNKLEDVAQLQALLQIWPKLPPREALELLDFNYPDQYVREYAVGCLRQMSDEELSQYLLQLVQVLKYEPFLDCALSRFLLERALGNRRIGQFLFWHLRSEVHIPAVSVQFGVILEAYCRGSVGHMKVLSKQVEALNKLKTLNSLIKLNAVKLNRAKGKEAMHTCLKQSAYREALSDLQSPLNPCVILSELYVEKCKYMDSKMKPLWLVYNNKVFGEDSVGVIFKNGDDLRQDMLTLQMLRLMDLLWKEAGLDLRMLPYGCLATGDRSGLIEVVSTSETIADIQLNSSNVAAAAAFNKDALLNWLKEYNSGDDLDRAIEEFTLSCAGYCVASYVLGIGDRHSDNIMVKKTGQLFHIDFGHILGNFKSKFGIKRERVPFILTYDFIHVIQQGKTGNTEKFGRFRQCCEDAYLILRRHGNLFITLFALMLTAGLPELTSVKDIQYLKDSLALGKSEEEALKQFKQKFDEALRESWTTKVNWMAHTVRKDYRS
Sequence (P27986 whole entry partner, species assumed): as the sequence (P27986 whole entry partner, species assumed) above
Define the label as MET when IC50 is strictly less than 500 nM and as NOT MET in all remaining cases.

Is 500 nM strictly greater than the compound's reported IC50? compound: CN(C1COC1)C(C)(C)/C=C(\C#N)C(=O)Nc1ccc(N2CC(N3CCN(c4ccc5c(c4)-c4nc(N6C(=O)OC[C@H]6C(F)F)cn4CCO5)CC3)C2)cc1
NOT MET

Record: C=CC(=O)N1CC(N2CCC(CN3CCN(c4ccc5c(c4)-c4nc(N6C(=O)OC[C@H]6C(F)F)cn4CCO5)CC3)CC2)C1
MET

Please do the same for C=CC(=O)Nc1ccc(N2CC(N3CCN(c4ccc5c(c4)-c4nc(N6C(=O)OC[C@H]6C(F)F)cn4CCO5)CC3)C2)cc1 as well.
NOT MET

Let us now turn to C=CC(=O)Nc1ccc(N2CC(CN3CCN(c4ccc5c(c4)-c4nc(N6C(=O)OC[C@H]6C(F)F)cn4CCO5)CC3)C2)cc1
MET

Input C=CC(=O)N1CCC(N2CC(CN3CCN(c4ccc5c(c4)-c4nc(N6C(=O)OC[C@H]6C(F)F)cn4CCO5)CC3)C2)CC1
MET
